experiment: Phase I human trial: plasma pharmacokinetics of EA-230; assay type: in vivo; settings: plasma, iv, 10 mg/kg, 10 mg/kg i.v. 15-min infusion, N = 6, arithmetic mean ± SD
Peptide text beside a SMILES is read from it.
measured endpoint: AUC(0-t) (ng·h/mL)
Field: numeric (ng·h/mL). Do not append units.

Request: Report AUC(0-t), nothing else, for this molecule: CC(C)[C@H](NC(=O)CNC(=O)[C@H](CCC(N)=O)NC(=O)[C@H](C)N)C(=O)O [EA-230, H-Ala-Gln-Gly-Val-OH.xAcOH] (H-AQGV-OH)
Result: 217

----------
experiment: Phase I human trial: plasma pharmacokinetics of EA-230; type: in vivo; settings: plasma, iv, 3 mg/kg, 3 mg/kg i.v. 2-min infusion, N = 6, arithmetic mean ± SD
Peptide text beside a SMILES is read from it.
measured endpoint: AUC(0-t) (ng·h/mL)
Give your result in ng·h/mL as a bare value.

Request: Look up and state reported AUC(0-t) for CC(C)[C@H](NC(=O)CNC(=O)[C@H](CCC(N)=O)NC(=O)[C@H](C)N)C(=O)O [EA-230, H-Ala-Gln-Gly-Val-OH.xAcOH] (H-AQGV-OH)
Result: 11.8

----------
Assay: Phase I human trial: plasma pharmacokinetics of EA-230
Format: in vivo
Conditions: plasma, iv, 10 mg/kg, Part 2, LPS + 10 mg/kg i.v. 15-min infusion, arithmetic mean ± SD
Experimental: Part 1: A Phase I, double blind, randomized, single dose, placebo controlled, dose escalation study with 4 groups of 8 subjects (Groups 1-4). In each group 6 subjects were randomized to active medication and 2 to placebo. […] After all subjects had completed Day 7 assessments, the safety review board decided on continuation of the study until the maximum tolerated dose had been assessed or the highest dose. […] Plasma concentration time profiles of EA-230 were analyzed. […]
Peptide text beside a SMILES is read from it.
measured endpoint: AUC(0-t)

Request: For the molecule CC(C)[C@H](NC(=O)CNC(=O)[C@H](CCC(N)=O)NC(=O)[C@H](C)N)C(=O)O [EA-230, H-Ala-Gln-Gly-Val-OH.xAcOH] (H-AQGV-OH) , report AUC(0-t).
Result: 303 ng·h/mL

----------
assay: Phase I human trial: plasma pharmacokinetics of EA-230; assay type: in vivo; details: plasma, iv, 30 mg/kg, 30 mg/kg i.v. 15-min infusion, N = 6, arithmetic mean ± SD
Peptide text beside a SMILES is read from it.
measured endpoint: Cmax (µg/mL)
Report only the number, with the unit µg/mL understood.

Request: Output Cmax of CC(C)[C@H](NC(=O)CNC(=O)[C@H](CCC(N)=O)NC(=O)[C@H](C)N)C(=O)O [EA-230, H-Ala-Gln-Gly-Val-OH.xAcOH] (H-AQGV-OH)
Result: 3.22

----------
Assay: Phase I human trial: plasma pharmacokinetics of EA-230
Format: in vivo
Details: plasma, iv, 30 mg/kg, 30 mg/kg i.v. 15-min infusion, N = 6, arithmetic mean ± SD
Experimental: Part 1: A Phase I, double blind, randomized, single dose, placebo controlled, dose escalation study with 4 groups of 8 subjects (Groups 1-4). In each group 6 subjects were randomized to active medication and 2 to placebo. […] After all subjects had completed Day 7 assessments, the safety review board decided on continuation of the study until the maximum tolerated dose had been assessed or the highest dose. […] Plasma concentration time profiles of EA-230 were analyzed. […]
Peptide text beside a SMILES is read from it.
measured endpoint: AUC(0-t) (ng·h/mL)
Give the value in ng·h/mL but do not write ng·h/mL after it.

Request: # return recorded AUC(0-t) for entry CC(C)[C@H](NC(=O)CNC(=O)[C@H](CCC(N)=O)NC(=O)[C@H](C)N)C(=O)O [EA-230, H-Ala-Gln-Gly-Val-OH.xAcOH] (H-AQGV-OH)
Result: 595
